# tested.target: Calcium and integrin-binding protein 1 (Homo sapiens) (UniProt Q99828)
# Sequence (Q99828 whole entry, looked up): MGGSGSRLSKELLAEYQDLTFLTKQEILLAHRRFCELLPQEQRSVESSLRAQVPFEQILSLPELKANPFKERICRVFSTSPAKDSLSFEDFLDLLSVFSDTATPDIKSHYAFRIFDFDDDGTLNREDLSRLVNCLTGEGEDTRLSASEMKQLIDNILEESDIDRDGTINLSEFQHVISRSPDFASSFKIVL
# assay.name: Primary qHTS for Identification of Calcium Integrin Binding Protein 1 (CIB1) Competitor (AID 1508620);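 note: GST tagged CIB1 binding a fluorescein labelled alphaIIb integrin peptide tracer; top concentration of the series differs between compounds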
# experimental.context: CIB1-GST / FITC-alphaIIb peptide fluorescence polarization; series mostly up to 114 µM
# Excerpt: Assay Provider: Ulhas P. Naik, PhD Sidney Kimmel Medical College Thomas Jefferson University, Philadelphia, PA Primary function of platelets is to maintain hemostasis. At the site of vascular injury, platelets adhere to adhesive proteins such as collagen and von Willebrand factor. […] PROTOCOL TABLES SEQUENCE No. (1, 2, 3, etc.); […] […] 7; ViewLux Fluorescent Polization Read: excitation = 480(20) / emission = 540(25) S and P; FITC Dichroic mirror.
Records with an inconclusive call do not appear. Activity calls are given as the source filed them. Calls come from the whole dose curve; as a rule, active = well fitted inhibition curve with a large enough effect; inconclusive = small, poorly fitted or top-dose-only effect; inactive = flat fitted curve, though single readings scatter.
attribute.measured: activity change, negative = inhibition

These solved cases illustrate the format of a correct answer.
| molecule | activity change, negative = inhibition |
| --- | --- |
| Cc1cc(C(C)Nc2ccccc2C(=O)O)c2nc(N3CCOCC3)cc(=O)n2c1 (stereo not drawn) | inactive |
| CC[C@@H](C)Nc1cc(C(=O)NC2CC3CC[C@@H](C2)N3c2ccc(C(=O)C3CC3)cn2)c(C)cc1C(N)=O (stereo partly drawn) | inactive |
| C=CC(=O)N1CC(N2CCN(C(=O)CNc3cc(C4CC4)c(Cl)cc3O)CC2)C1 | inactive |
| C=CC(C)(O)CC/C=C(/C)COC(=O)C(C)C1CCC(C)(C=C)O1 (stereo not drawn) | inactive |
| CN(C)C(=O)NC1(c2ccccc2)CCN(CCC[C@]2(c3ccc(Cl)c(Cl)c3)CCCN(C(=O)c3ccccc3)C2)CC1 | inactive |
| Nc1nccc(-c2c(-c3ccc(F)cc3)ncn2C2CCCCC2)n1 | inactive |
| O=c1[nH]c([C@@H]2CCCN2)nc2c1oc1ccc(Cl)cc12 | inactive |
| Fc1ccc2c(CCNCc3cccc(OCC(F)(F)C(F)F)c3)c[nH]c2c1 | inactive |

Ask: What value of measured activity change, negative = inhibition is listed for CCO[C@H]1CN(C2CCC(O)(c3ccc4c(c3)OCO4)CC2)C[C@@H]1NC(=O)CNC(=O)c1cccc(C(F)(F)F)c1 (stereo partly drawn) ?
Reply: inactive

Ask: What value of measured activity change, negative = inhibition is listed for CN1CCC(NC(=O)c2cc(-c3c(O)cc(O)cc3Oc3ccc([N+](=O)[O-])cc3)on2)CC1 ?
Reply: inactive
